Reference source for all entries: PubChem BioAssay (NCI)

# System: PC-3 prostate
# method: NCI-60 one-dose screen, 48 h (100 = growth as untreated, 0 = no growth, -100 = all killed)
# stated-conditions: 10 µM
The panel holds about 83,000 compounds, 20% with a hit somewhere; the sample as a whole holds those more often.
Reported growth is given for each of the following molecules.
metric-name: growth (%)

| molecule | recorded-value |
| --- | --- |
| COc1cc(C2CC(c3ccc(Oc4ccc(Cl)cc4)cc3)=NN2c2nc(-c3ccc(Cl)cc3)c(C#N)c(N3CCOCC3)n2)cc(OC)c1OC (stereo unspecified) | 92 |
| Cn1cc(-c2nnc(N)nc2-c2c[nH]c3ccc(F)cc23)c2cc(Br)cnc21 | 56.8 |
| Cc1cc(N=C2NC(=O)/C(=C/c3cc(C(C)(C)C)c(O)c(C(C)(C)C)c3)S2)n[nH]1 | 10.7 |
| O=C(c1ccccc1)c1ccc2nc(-c3ccccc3Br)[nH]c2c1 | -19.4 |
| Cc1ccc(-c2nc(C#N)c(S(=O)(=O)N3CCN(S(C)(=O)=O)CC3)o2)cc1 | 68.3 |
| COc1ccc(C2OC[C@@]3(C)C4CC[C@]5(C)C(CC=C6C7CC(C)(C)CC[C@]7(C(=O)O)CC[C@]65C)[C@@]4(C)C[C@@H](O)[C@@H]3O2)cc1 (stereo partly specified) | 49.2 |
| COc1ccc(OC)c(-n2cc(C#N)c(N)c2C(=O)c2ccc(Cl)cc2Cl)c1 | 37.8 |
| Cn1cc(-c2cc3nc(-c4c[nH]c5ccccc45)cc(N)n3n2)c2cc(Cl)ccc21 | -85.3 |
| Cn1cc(-c2cc(N)n3nc(-c4cn(C)c5ccccc45)cc3n2)c2cc(F)ccc21 | -28 |
| COc1ccc(Cc2nn(CC(=O)N/N=C/c3ccc(Br)cc3)c(=O)c3c(C)noc23)cc1 | 43.9 |
| COc1ccc(NCc2cn(-c3ccc(C(=O)O)cc3)nc2-c2ccc(F)cc2)cc1C(F)(F)F | 36.3 |
| O=C(c1ccc(Cl)cc1)C(c1c[nH]c2ccccc12)c1c[nH]c2ccccc12 | -33.2 |
| CCOc1ccc(/C=N/NC(=O)Cn2nc(Cc3ccc(OC)cc3)c3onc(C)c3c2=O)cc1 | 18.3 |
| COc1cc(-c2nc3ccc(C)cc3[nH]2)ccc1OCc1nnc(-c2ccccc2Br)o1 | 56.1 |
| O=C(CN1CCN(c2ncnc3c2cnn3-c2ccccc2)CC1)Nc1ccc(Br)cc1 | 49.1 |
| Cc1ccc(S(=O)(=O)N2CCN(S(=O)(=O)c3oc(-c4ccccc4)nc3C#N)CC2)cc1 | 75 |

====

# System: MDA-MB-468 breast
# method: NCI-60 one-dose screen, 48 h (100 = growth as untreated, 0 = no growth, -100 = all killed)
# stated-conditions: 10 µM unless noted
Compounds without any hit were thinned out: in the full panel of roughly 83,000, 20% have a hit.
Lab note - cut at 40% for growth: met if strictly below, not met if not.

| compound | assigned-label |
| --- | --- |
| Cn1ncc(CC(=O)O)c1-n1nnc2cc(Cl)ccc2c1=O | not met |
| CCOC(=O)c1nn(C2CCCCO2)c2ccc(NC(=O)Cn3nnc4ccccc43)cc12 (stereo not drawn) | not met |
| CN1CCC[C@]2(C)[C@H]3CC[C@@H]4[C@@H]5[C@H]6OC[C@@]5(CCC6(C)C)CC[C@@]4(C)[C@]3(C)CC[C@H]2C1(C)C | not met |
| CCN1C2=C(SC(=S)C1=C1SC(C(=O)OC)=C(C(=O)OC)S1)SC(=Nc1ccc(OC)cc1)C2=O | met |
| Cc1c(C(=O)/C=C/Nc2c(Cl)cc(S(N)(=O)=O)cc2Cl)sc2nc3ccccc3n12 | not met |
| COC(=O)c1cc(=O)nc(N/N=C/c2ccc(C)cc2)s1 | not met |
| COC(=O)[C@]12CC[C@@H](C)[C@H](C)[C@@H]1C1=CC[C@@H]3[C@@](C)(CC#N)C4=C(C[C@@]3(C)[C@]1(C)CC2)OC[C@]4(C)C=O | met |
| O=C1/C(=C/c2ccc(Cl)cc2Cl)CN(S(=O)(=O)c2ccccc2)C/C1=C\c1ccc(Cl)cc1Cl | met |
| CC(C)(C)n1cc(-c2ccnc(NCCCNS(=O)(=O)c3ccc(F)cc3)c2)c(-c2cccc(F)c2)n1 | not met |
| COc1ccc(-c2nc(SCC(C)C)nc(N/N=C(/C)c3ccc(OC)c(OC)c3)c2C#N)cc1 | not met |
| COc1ccc(C(=O)/C=C/c2cc(C(=O)c3cc(OC)c(OC)c(OC)c3)ccc2OC)cc1 | not met |
| O=C(Nc1ccc(Cl)c(C(F)(F)F)c1)Nc1ccc2c(ccn2C(=O)c2cccc(F)c2)c1 | met |
| CCCCCCCCOC(=O)c1ccc(O)c(OC)c1 | not met |
| COC(=O)C1(CC(C)=O)NC(=S)NC(=O)C1C#N (stereo not drawn) | not met |
| O=C(/C=C/CN1CCCCC1)Nc1cc2c(Nc3ccc(F)c(Cl)c3F)ncnc2cc1OCCOC(F)F | met |
| N#Cc1c2c(nn(-c3ccccc3)c1=O)C(O)=C([N+](=O)[O-])C(c1ccccc1)C2 (stereo not drawn) | not met |
| CCCCCCCCCCCCCCCCN(C(C)c1ccccc1)S(=O)(=O)c1ccc(OC)c(N)c1 (stereo not drawn) | not met |
